Test system: SK-MEL-5
assay.protocol: NCI tumour cell line growth inhibition, 48 h
Calls of active or inactive are those of the source. Rule as the data show it: active = GI50 up to about 1.1 µM and inactive = higher.
metric: GI50

Which GI50 value belongs to `C=CCN1C(=O)CNC1=S` ? > 100 µM (inactive)

For COCC1OC([P+](c2ccccc2)(c2ccccc2)c2ccccc2)CC(OC)C1OC (stereo not given) then? 18.2 µM (inactive)

For N#CC(C/C=C/c1ccccc1)NNC(=O)c1c(Cl)c(Cl)c(Cl)c(Cl)c1-c1nc2cc(C(=O)c3ccccc3)ccc2[nH]1 (stereo not given) then? 10.2 µM (inactive)

For `O=C(O)c1c(Br)c(Br)c(Br)c(Br)c1C1c2ccc(O)cc2Oc2cc(O)ccc21` then? > 100 µM (inactive)

For `COc1ccc2nc(NC(=O)C(=O)CC(=O)c3ccc([N+](=O)[O-])cc3)sc2c1` then? > 100 µM (inactive)

Next:
Which GI50 value belongs to CCOC(=O)NC/C=C/COC1CCCCO1 (stereo not given) ? > 100 µM (inactive)

For `Cc1c(C(=O)O)sc2nc[nH]c(=O)c12` then? > 100 µM (inactive)

For `Cc1nc(SCC(=O)Nc2ccc(Cl)cc2)c2sc(=S)n(-c3ccccc3)c2n1` then? > 10 µM (inactive)

For COc1ccccc1N1C(=O)/C(=C\c2cc(OC)c(OC)c(OC)c2)SC1c1ccccc1 (stereo not given) then? 14.2 µM (inactive)

For `CC[C@]1(O)C(=O)OCc2c1cc1n(c2=O)Cc2cc3c(N)cccc3nc2-1` then? > 100 µM (inactive)

For `Cc1ccc([C@H]2CC(=O)C[C@H](c3ccc(C)cc3)C23C(=O)c2ccccc2C3=O)cc1` then? 34.4 µM (inactive)

For O=C(CCCCCCCCC(=O)NN1C(=O)/C(=C\c2ccc(O)c(O)c2)SC1c1ccc(Cl)cc1)NN1C(=O)/C(=C\c2ccc(O)c(O)c2)SC1c1ccc(Cl)cc1 (stereo not given) then? 30.6 µM (inactive)

For COc1ccc2[nH]cc(CCNC(=O)[C@](O)(Cc3cn(C)c4ccccc34)[C@@]3(O)OCC(O)C3O)c2c1 (stereo not given in full) then? > 100 µM (inactive)

For CC1(C2(C)OC(=O)c3ccccc32)OC(=O)c2ccccc21 (stereo not given) then? > 100 µM (inactive)

For `Cc1cc([N+](=O)[O-])c(C)c2c1[nH]c1ccc(O)cc12` then? > 100 µM (inactive)

====

Test system: MOLT-4
assay.protocol: NCI tumour cell line growth inhibition, 48 h
Active and inactive are the calls of the source. Rule as the data show it: active = GI50 up to about 1.1 µM and inactive = higher.
Below is a list of entries, each paired with its recorded GI50 value.

Check out these entries, answers already filled in.
Which GI50 value belongs to `C=CCN1C(=O)/C(=C/c2ccccc2)NC1=S` ? 61.7 µM (inactive)

For `CN(Cc1cnc2nc(N)nc(N)c2n1)c1ccc(C(=O)NCCS(=O)(=O)O)cc1` then? > 100 µM (inactive)

For `COc1cc(Cl)c(CC(=O)c2c[nH]c3ccccc23)cc1OC` then? > 100 µM (inactive)

For `Cc1ccc(/N=N/C(C(=O)c2ccccc2)C(=O)c2ccccc2)cc1` then? 10.2 µM (inactive)

Next:
Which GI50 value belongs to `C(=N\NC1=NCCN1)/c1ccc(-c2cn3cc(/C=N/NC4=NCCN4)ccc3n2)cc1` ? 5.35 µM (inactive)

For `CC(=N\N=C\c1ccccn1)/C(C)=N/N=C/c1ccccn1` then? > 10 µM (inactive)

For `Cc1cccc(/N=C/C=C(\Cl)c2ccc3ccccc3c2)c1` then? 2.56 µM (inactive)

For `Cc1cc(C)c(-n2c(-c3ccccc3)cs/c2=N\N=C2C=C(C(C)(C)C)C(=O)C(C(C)(C)C)=C2)c(C)c1` then? > 100 µM (inactive)

For `NNC(=O)CC(=O)Nc1ccccc1F` then? > 100 µM (inactive)

For `CC[C@H]1CC(=O)c2c(cc3c(c2O)C(=O)c2ccccc2C3=O)[C@@]1(C#N)C(=O)OC(C)(C)C` then? 2.33 µM (inactive)

For `O=C(c1ccco1)N1CCCN(C(=O)c2ccco2)C1=S` then? > 100 µM (inactive)

For `Cc1nc2c(Br)cc(Br)cc2c(=O)n1-c1ccccc1N` then? 21.9 µM (inactive)

For `Cn1c(=S)c2nc(SCCN3CCCC3)[nH]c2n(C)c1=O` then? > 100 µM (inactive)

For `COc1ccc(/C=C2\C(=O)Nc3ccccc32)cc1OC` then? > 100 µM (inactive)

For `Cc1cn([C@@H]2O[C@H](CO)[C@@H](O)[C@@H]2O)c(=O)[nH]c1=O` then? > 1000 µM (inactive)

For `Cn1c2ccccc2c2cc(N3CCCC3)c3c(c21)C(=O)N(c1ccccc1)C3=O` then? > 100 µM (inactive)

For CC(CO)C1=CC(C#CCOCc2ccccc2)N(C(=O)Oc2ccccc2)c2ccccc21 (stereo not drawn) then? 4.63 µM (inactive)

For `O=C1c2scc(-c3ccc(Cl)cc3)c2-n2cccc21` then? 73.3 µM (inactive)
